System: HeLa
Assay: nuclear count per well, robust Z-score vs DMSO; higher = more cells (less toxicity)
Conditions: 10 µM; 6 h
Please provide measured nuclear count per well for the entries that follow.
Numbers only.

| Compound | Tgt | Quantitative Readout |
| --- | --- | --- |
| O=C1C2CCN(CC2)C1(CO)CO | HeLa | 0.569 |

// each listed compound needs a value for nuclear count per well
1. NCCCNCCSP(=O)(O)O [Amifostine]
2. COc1cc2c(c3oc(=O)c4c(c13)CCC4=O)[C@@H]1CCO[C@@H]1O2 [Aflatoxin B2]
3. NC1CCc2cc(O)c(O)cc2C1 (centres undefined)

Resp:
1. 0.804
2. 1.49
3. 0.0305

----------
System: HeLa
Assay: nuclear count per well, robust Z-score vs DMSO; higher = more cells (less toxicity)
Settings: 10 µM; 6 h
Where a name gives a salt, the structure may show the parent alone.
Please provide measured nuclear count per well for the entries that follow.
Numbers only.

Here's what some known entries look like.
| Compound | Tgt | nuclear count per well |
| --- | --- | --- |
| Cc1c(C(=O)c2cccc3ccccc23)c2cccc3c2n1[C@H](CN1CCOCC1)CO3 [WIN 55,212-2 mesylate] | HeLa | 0.0402 |
| N#CC(C#N)=Cc1ccc(O)cc1 [Tyrphostin-8] | HeLa | 1.34 |
| NC(=O)C[S+]([O-])C(c1ccccc1)c1ccccc1 (configuration not stated) [Modafinil (Schedule Iv)] | HeLa | -0.00789 |
| CC(NC(C)(C)C)C(=O)c1cccc(Cl)c1 (configuration not stated) | HeLa | 0.572 |
| O=P1(N(CCCl)CCCl)NCCCO1 (configuration not stated) [Cyclophosphamide] | HeLa | 0.528 |

// each listed compound needs a value for nuclear count per well
1. COc1ccc(C(=O)O[C@H]2CC[C@@]3(C)[C@@H]4CC[C@H]5[C@]6(O)C[C@H](O)[C@@]7(O)[C@@H](CN8C[C@@H](C)CC[C@H]8[C@@]7(C)O)[C@]6(O)C[C@@]53O[C@]24O)cc1OC [Veratridine]
2. CCCCC/C=C\C/C=C\C/C=C\C/C=C\CCCC(=O)NCC(=O)O [N-arachidonoylglycine]

Resp:
[0.0974, -0.304]

----------
Tested on: HeLa;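 also: Hoechst-stained nuclei counted by automated confocal imaging of four fields per well in 384-well plates, with the robust Z-score based on the per-plate DMSO median and robust SD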
Test: nuclear count per well, robust Z-score vs DMSO; higher = more cells (less toxicity)
Conditions: 10 µM; 6 h
Readout Label: nuclear count per well
Numbers only.

| Compound | nuclear count per well |
| --- | --- |
| O[C@H]1[C@H]2[C@H](O)CCCN2C[C@H]1O [swainsonine] | 1.06 |
| CCOC(=O)CN1C(=O)CC(C[C@@H](O)C2C[C@@H](C)C[C@H](C)C2=O)CC1=O (stereo not given in full) [Cycloheximide-N-ethylethanoate] | -0.108 |
| O=C(O)CCCc1ccc(N(CCCl)CCCl)cc1 [Chlorambucil] | -0.289 |

// each listed compound needs a value for nuclear count per well
1. CCCCC[C@@H](/C=C/C=C\C/C=C\C/C=C\CCCC(=O)O)OO
2. c1ccc(C2CC2)c(OCC2=NCCN2)c1 [Cirazoline]

Resp:
[-0.172, 0.26]
